Each recorded value in this set is attributed to PubChem BioAssay (NCI).

Form field: GI50 (one value per entry).
Test system: SW-620 colon
EXPERIMENTAL_PROTOCOL: NCI tumour cell line growth inhibition, 48 h

Example cases with answers are listed next.
COC(=O)[C@H](C)NC(=O)NC(=O)NC(=O)CI; 16500 nM
CN1C/C=C\CCOc2cccc(c2)-c2ccnc(n2)Nc2cccc(c2)C1; 43.9 nM
COc1cc2ncnc(Nc3ccc(C)c(O)c3)c2cc1OC; > 25000 nM

q: What measured GI50 is associated with Cc1ccc(C(=O)CN(/C=C/C(=O)C(F)(F)F)c2ccc(S(N)(=O)=O)cc2)cc1 on SW-620 colon?
a: > 100000 nM

q: Enter reported GI50 observed with SW-620 colon for CNc1ccc(C(=O)CC(O)CCC(C)C2OC(=O)CC(O)CC(=O)CC(O)CC(O)CC(O)CC(O)CC3(O)CC(O)C(C(=O)OC)C(CC(O[C@@H]4O[C@H](C)[C@@H](O)[C@H](N)[C@@H]4O)/C=C/C=C/C=C/C=C/C=C/C=C/C=C/C2C)O3)cc1 (stereo partly drawn)
a: 5330 nM

----------
Test system: SNB-75 CNS
EXPERIMENTAL_PROTOCOL: NCI tumour cell line growth inhibition, 48 h
Short version: TGI at least 20 µM is 1.0, less is 0.0.

CCCCN1C(=O)N(c2ccc(OCC)cc2)C2N(CCCC)C1C(C)(C)C2(C)C (stereo not drawn); 1.0
CC1OC(OC2C(O[C@H]3CC[C@@]4(C)C(=CC[C@H]5[C@@H]6C[C@@H]7O[C@]8(CC[C@@H](CO)CO8)[C@@H](C)[C@@H]7[C@@]6(C)CC[C@@H]54)C3)OC(CO)C(O)C2OC2OC(CO)C(O)C(O)C2O)C(O)C(O)C1O (stereo partly drawn); 0.0

q: Tell me whether TGI is at least 20 µM here: O=C(c1ccc(N=Cc2ccccc2O)cc1)c1ccc(N=Cc2ccccc2O)cc1
a: 1.0

q: // inclusive: TGI at least 20 µM? input: COc1ccc(Cn2cc3c(c2-c2ccccc2)CC(C)(C)c2cnoc2-3)cc1
a: 0.0

q: Determine whether measured TGI meets or exceeds 20 µM for O=C(NC1=CC(=O)c2ccccc2C1=O)c1ccccc1
a: 0.0

q: Does TGI meet or surpass 20 µM for CC(C)[Si](OC1=C(C(=O)N(C)c2cccc(Cl)c2)CCCC1)(C(C)C)C(C)C ?
a: 1.0

q: Identify whether the reported TGI of the following compound is 20 µM or greater: CCOCc1nc2c(OC)cc(-c3nc4ccc(N5CCN(C)CC5)cc4[nH]3)c(OC)c2[nH]1
a: 1.0

q: Please indicate if the recorded TGI for COC(CNC(=O)C(C)NC(=O)CCc1ccccc1)OC (stereo not drawn) meets or exceeds 20 µM.
a: 1.0

----------
System: COLO 205 colon
EXPERIMENTAL_PROTOCOL: NCI tumour cell line growth inhibition, 48 h; in the data active = GI50 below about 0.43 µM; inactive = the rest
Please state which outcome applies, choosing from active, inactive

Would you please look over these solved cases?
CN1C/C=C\CCOc2cccc(c2)-c2ccnc(n2)Nc2cccc(c2)C1; active
COc1ccc(Nc2c3ccccc3nc3occc23)cc1; inactive
COC(=O)[C@@H](C)CNS(=O)(=O)N(c1cc(C(F)(F)F)cc(C(F)(F)F)c1)C1CCN(Cc2ccc(F)cc2)CC1; inactive
C=C1C(=O)O[C@H]2[C@H]1CC/C(COC(=O)C(=O)c1cn(Cc3ccccc3)c3ccccc13)=C\CC[C@@]1(C)O[C@@H]21; inactive
O=C(N/N=C/c1ccc(Cl)cc1)c1ccc(C(F)(F)F)nc1Nc1cccc(C(F)(F)F)c1; inactive
CCCCCCCC/C=C/CCCCCCCC(=O)OC[C@H]1O[C@@H](n2ccc(N)nc2=O)C(F)(F)[C@@H]1O; active
N=C1C(c2nc3ccccc3s2)=C(O)CN1c1cc(C(F)(F)F)ccc1Cl; inactive
Cc1cc(C(=O)Nc2ncc(Cc3cccc(C(F)(F)F)c3)s2)c2ccccc2n1; inactive

Please turn your attention to the following entry.
q: Please state the recorded outcome for this compound: COc1cc2nc3cc([N+](=O)[O-])ccc3c(NCCCNCCO)c2cc1OC
a: active

----------
Tested on: T-47D breast
EXPERIMENTAL_PROTOCOL: NCI tumour cell line growth inhibition, 48 h
PROPERTY_MEASURED: GI50

A selection of reference data follows.
COc1cc2ncnc(Nc3ccc(C)c(O)c3)c2cc1OC; 7.79 µM
C=C1C(=O)O[C@H]2[C@H]1CC/C(COC(=O)C(=O)c1cn(Cc3ccccc3)c3ccccc13)=C\CC[C@@]1(C)O[C@@H]21; 2.04 µM
COc1cc2c(c(OC)c1OC)-c1ccc(OC)c(=O)cc1[C@@H](NC(=O)c1ccccc1)CC2; > 30 µM

q: Tell me the measured GI50 of c1cc(CNC23CC4CC(CC(C4)C2)C3)cc(C[N+](Cc2cccc(CNC34CC5CC(CC(C5)C3)C4)c2)(Cc2cccc(CNC34CC5CC(CC(C5)C3)C4)c2)Cc2cccc(CNC34CC5CC(CC(C5)C3)C4)c2)c1 (centres undefined) , please.
a: 5.59 µM

----------
Test system: CCRF-CEM leukemia
EXPERIMENTAL_PROTOCOL: NCI tumour cell line growth inhibition, 48 h
PROPERTY_MEASURED: log10 of TGI (log10 of the value in µM)
Recorded TGI (log10, µM)

q: Name the recorded log10 of TGI for N#C/C(=C1C=C(Br)/C(=N\O)C=C\1Cl)c1cccc2ccccc12 .
a: 1.14

q: # get_value(readout='log10 of TGI', item= O=c1cc(-c2ccc(F)cc2)[nH]c2ncc(Cl)cc12 )
a: 1.89

q: Entry CC(C)(C)c1cc(C(C)(C)C)cc(S(=O)(=O)Nc2cc3ccccc3cc2C(=O)NCCN)c1 : reported log10 of TGI = ?
a: 0.81

q: Can you look up the measured log10 of TGI of CCOC(=O)/C=C(/C(=O)OCC)n1ccc(=O)n(Cc2cn(COCCOC(C)=O)nn2)c1=O for me?
a: 0.68

q: Recorded log10 of TGI for CCN(CC)CCNc1nc2ccc([N+](=O)[O-])cc2[n+]([O-])n1 , please?
a: 1.93

----------
System: HT29 colon
EXPERIMENTAL_PROTOCOL: NCI tumour cell line growth inhibition, 48 h
PROPERTY_MEASURED: TGI (µM)
Reply with just the number (in µM).

Below, each entry is followed by its recorded TGI result.
COc1ccc(Cn2cc3c(c2-c2ccccc2)CC(C)(C)c2cnoc2-3)cc1; 7.53
CC(C)n1nc(-c2cc3cc(O)ccc3[nH]2)c2c(N)ncnc21; 28.7
CC(C)(C)c1cc(C(C)(C)C)cc(S(=O)(=O)Nc2cc3ccccc3cc2C(=O)NCCN)c1; 3.95
O=C(NC1=CC(=O)c2ccccc2C1=O)c1ccccc1; 4.9
COc1ccc2ccccc2c1/C=C/C(=O)c1ccccc1; 12.4
N#CC(NNC(=O)Cc1ccccc1)c1c(O)ccc2ccccc12 (stereo not given); 62.1
Oc1ccc(-c2nc(-c3cccnc3)c(-c3ccc(Cl)cc3)[nH]2)cc1; 28.4

Alright, here's another compound for you.
q: Would you kindly share the measured TGI for CCOC(=O)CC1(C(=O)OCC)c2[nH]c3ccccc3c2CCN1Cc1ccccc1 (stereo not given) ?
a: 29.8

----------
Test system: XF 498 CNS
EXPERIMENTAL_PROTOCOL: NCI tumour cell line growth inhibition, 48 h
Here, each record is paired with measured TGI data.

q: Requested read-out: TGI. Entry: CC(C)C(Nc1c2ccccc2nc2ccccc12)C(=O)O (stereo not drawn)
a: > 100 µM

q: # input compound: Cc1ccc(C2=C(c3ccccc3)C(Br)(c3ccc(C)cc3)C(c3ccccc3)=C2c2ccc(C)cc2)cc1 ; wanted: its TGI
a: > 100 µM

q: Quick one: TGI for O=C(O)C1OC(n2cc(F)c(=O)[nH]c2=O)CC1O (stereo not drawn) ?
a: > 100 µM

----------
Recorded measurements of TGI, one per entry
System: A549 NSCLC
EXPERIMENTAL_PROTOCOL: NCI tumour cell line growth inhibition, 48 h

Cc1cc(S(=O)(=O)N=C2N(Cc3ccccc3)CCN2Cc2ccccc2)c(S)cc1Cl; > 100 µM

q: Need TGI of CN1C/C=C\CCOc2cccc(c2)-c2ccnc(n2)Nc2cccc(c2)C1 , thanks.
a: 0.8 µM

q: I would be grateful if you could share the reported TGI for CCOC(=O)CNc1c(OCc2ccccc2)c(=O)c1=O .
a: > 100 µM

q: Bench note: what TGI did NS(=O)(=O)c1ccc(NC2(C(=O)O)CCCC2)cc1 show?
a: > 100 µM

q: TGI lookup needed for NS(=O)(=O)c1ccc(N=Nc2c(O)[nH]c3ccc(-c4cnco4)cc23)cc1 , thanks.
a: > 25 µM

q: Would you kindly share the measured TGI for COC(=O)[C@H](C)NC(=O)NC(=O)NC(=O)CI ?
a: 36.3 µM
